# Test Summary: Half life in BALB/c mouse at 5 mg/kg, po measured for 24 hrs by LCMS analysis
# Format: ADME, organism-based
# Test Conditions: in vivo
Property Label: half-life (h)

compound="Nc1ncnc2c1c(-c1ccc(Oc3ccccc3)cc1)nn2[C@@H]1CCCN(C(=O)Cc2ccc(Nc3ccc4c(c3)CN(C3CCC(=O)NC3=O)C4=O)cc2)C1 (stereo partly drawn)" result_value=1.14

(1) Nc1ncnc2c1c(-c1ccc(Oc3ccccc3)cc1)nn2C1CCN(C(=O)Cc2ccc(Nc3ccc4c(c3)CN(C3CCC(=O)NC3=O)C4=O)cc2)CC1 (stereo not drawn)
(2) Nc1ncnc2c1c(-c1ccc(Oc3ccccc3)cc1)nn2[C@@H]1CCCN(C(=O)c2ccc(CNc3ccc4c(c3)C(=O)N(C3CCC(=O)NC3=O)C4=O)cc2)C1 (stereo partly drawn)
Q: I would appreciate it if you could say which entry, 1 or 2 , has the lower half-life value. Choose, then provide that item's label.
A: 2

---

# Test Summary: Cmax in BALB/c mouse at 5 mg/kg, po measured for 24 hrs by LCMS analysis
# Assay type: ADME, organism-based
# Set-up: dose 5 mg/kg, time 24 hrs, route po
# Test Conditions: in vivo
Property Label: Cmax (ng/mL)

(A) Nc1ncnc2c1c(-c1ccc(Oc3ccccc3)cc1)nn2C1CCN(C(=O)Cc2ccc(Nc3ccc4c(c3)CN(C3CCC(=O)NC3=O)C4=O)cc2)CC1 (stereo not drawn)
(B) Nc1ncnc2c1c(-c1ccc(Oc3ccccc3)cc1)nn2[C@@H]1CCCN(C(=O)c2ccc(CNc3ccc4c(c3)C(=O)N(C3CCC(=O)NC3=O)C4=O)cc2)C1 (stereo partly drawn)
(C) Nc1ncnc2c1c(-c1ccc(Oc3ccccc3)cc1)nn2[C@@H]1CCCN(C(=O)Cc2ccc(Nc3ccc4c(c3)CN(C3CCC(=O)NC3=O)C4=O)cc2)C1 (stereo partly drawn)
Q: Exam item: list the entries in increasing order of Cmax. I'd appreciate it if you listed the labels in the requested order.
A: A, B, C
(A: 83.2 ng/mL, B: 252 ng/mL, C: 364 ng/mL)

---

# Test Summary: Stability in human liver microsomes assessed as intrinsic clearance measured per mg protein at 1 uM preincubated for 10 mins followed by reaction initiation measured upto 60 mins in presence of NADPH
# Format: ADME, Microsome
# Test Conditions: time < 70 min, read-out: CLH
Property Label: microsomal CLint at 1 µM (µL/min/mg)

compound="Nc1ncnc2c1c(-c1ccc(Oc3ccccc3)cc1)nn2[C@@H]1CCCN(C(=O)Cc2ccc(Nc3ccc4c(c3)CN(C3CCC(=O)NC3=O)C4=O)cc2)C1 (stereo partly drawn)" value_unit=µL/min/mg result_value=96.2

(P) Nc1ncnc2c1c(-c1ccc(Oc3ccccc3)cc1)nn2C1CCN(C(=O)Cc2ccc(Nc3ccc4c(c3)CN(C3CCC(=O)NC3=O)C4=O)cc2)CC1 (stereo not drawn)
(Q) Nc1ncnc2c1c(-c1ccc(Oc3ccccc3)cc1)nn2[C@@H]1CCCN(C(=O)c2ccc(CNc3ccc4c(c3)C(=O)N(C3CCC(=O)NC3=O)C4=O)cc2)C1 (stereo partly drawn)
Q: Please let me know which one, P or Q , has a lower measured microsomal CLint at 1 µM value. State your choice using its label.
A: Q
(Q: 9.83 µL/min/mg, P: 147 µL/min/mg)

---

# Target Desc: Protein cereblon/Tyrosine-protein kinase BTK (Homo sapiens) (UniProt Q06187+Q96SW2)
# Sequence (Q06187 2-659 limits assumed): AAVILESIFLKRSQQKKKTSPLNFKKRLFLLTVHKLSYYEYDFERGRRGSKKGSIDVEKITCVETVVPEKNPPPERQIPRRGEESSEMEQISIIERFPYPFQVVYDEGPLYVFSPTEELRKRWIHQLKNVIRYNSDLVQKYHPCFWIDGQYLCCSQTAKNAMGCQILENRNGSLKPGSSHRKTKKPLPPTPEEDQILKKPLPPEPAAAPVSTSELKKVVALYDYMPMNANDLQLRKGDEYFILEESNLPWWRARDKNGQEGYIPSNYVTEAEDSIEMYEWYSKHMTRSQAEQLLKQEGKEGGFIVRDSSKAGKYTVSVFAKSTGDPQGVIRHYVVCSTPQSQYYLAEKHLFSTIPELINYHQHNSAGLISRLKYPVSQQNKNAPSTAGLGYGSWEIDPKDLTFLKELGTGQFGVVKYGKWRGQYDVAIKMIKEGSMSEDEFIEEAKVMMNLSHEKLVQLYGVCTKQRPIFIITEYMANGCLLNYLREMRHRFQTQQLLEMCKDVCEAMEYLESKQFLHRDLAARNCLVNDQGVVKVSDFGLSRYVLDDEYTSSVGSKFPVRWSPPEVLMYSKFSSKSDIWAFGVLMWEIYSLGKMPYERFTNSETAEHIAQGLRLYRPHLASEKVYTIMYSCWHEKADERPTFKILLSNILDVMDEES
# Sequence (Q96SW2 whole entry partner): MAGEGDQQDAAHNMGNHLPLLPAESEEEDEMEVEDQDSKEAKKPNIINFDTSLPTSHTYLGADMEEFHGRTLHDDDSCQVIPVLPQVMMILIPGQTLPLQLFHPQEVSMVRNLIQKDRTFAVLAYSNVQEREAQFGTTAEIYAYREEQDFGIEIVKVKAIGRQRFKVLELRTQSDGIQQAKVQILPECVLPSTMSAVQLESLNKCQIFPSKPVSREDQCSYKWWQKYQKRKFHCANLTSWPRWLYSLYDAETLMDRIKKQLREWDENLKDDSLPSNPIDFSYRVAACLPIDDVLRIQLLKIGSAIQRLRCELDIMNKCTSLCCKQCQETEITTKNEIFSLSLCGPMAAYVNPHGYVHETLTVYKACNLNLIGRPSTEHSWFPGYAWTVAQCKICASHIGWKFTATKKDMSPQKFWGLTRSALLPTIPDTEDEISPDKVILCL
# Test Summary: PROTAC activity at CRBN/ BTK in human Ramos cells assessed as induction of BTK degradation at 100 nM incubated for 24 hrs by immunoblot analysis relative to control
# Format: cell-based
Property Label: Activity (%)

molecule="Nc1ncnc2c1c(-c1ccc(Oc3ccccc3)cc1)nn2[C@@H]1CCCN(C(=O)N2CC3(C2)CN(c2ccc4c(c2)C(=O)N(C2CCC(=O)NC2=O)C4=O)C3)C1 (stereo partly specified)" result_value=23.1
molecule="Nc1ncnc2c1c(-c1ccc(Oc3ccccc3)cc1)nn2[C@@H]1CCCN(C(=O)N2CCN(c3ccc4c(c3)C(=O)N(C3CCC(=O)NC3=O)C4=O)CC2)C1 (stereo partly specified)" result_value=78.4
molecule="Nc1ncnc2c1c(-c1ccc(Oc3ccccc3)cc1)nn2[C@@H]1CCCN(C(=O)c2ccc(CNc3ccc4c(c3)C(=O)N(C3CCC(=O)NC3=O)C4=O)cc2)C1 (stereo partly specified)" result_value=18.3

(1) Nc1ncnc2c1c(-c1ccc(Oc3ccccc3)cc1)nn2[C@@H]1CCCN(C(=O)c2ccc(Nc3ccc4c(c3)CN(C3CCC(=O)NC3=O)C4=O)cc2)C1 (stereo partly specified)
(2) Nc1ncnc2c1c(-c1ccc(Oc3ccccc3)cc1)nn2[C@@H]1CCCN(C(=O)c2ccc(Nc3ccc4c(c3)C(=O)N(C3CCC(=O)NC3=O)C4=O)cc2)C1 (stereo partly specified)
(3) Nc1ncnc2c1c(-c1ccc(Oc3ccccc3)cc1)nn2[C@@H]1CCCN(C(=O)c2cn(CCOCCOCCOCCCc3cccc4c3CN(C3CCC(=O)NC3=O)C4=O)nn2)C1 (stereo partly specified)
Q: Sort the 3 molecules by Activity; largest first, smallest last. Ranked list of labels, please, in the requested order.
A: 3, 2, 1
(3: 28.5%, 2: 18.2%, 1: 6.9%)
